Test system: SW-620 colon
Protocol details: NCI-60 one-dose screen, 48 h (100 = growth as untreated, 0 = no growth, -100 = all killed)
Condition notes: 10 µM unless noted
About 83,000 compounds went through this panel and 20% of them were active in at least one assay; those are over-represented in the sample as a whole.
Parameter: growth. Scope: all listed entries.
Write down the numeric answer in % and omit the unit.

These solved cases illustrate the format of a correct answer.
The compound listed as Nc1n[nH]c2ccc([C@@H]3Nc4ccc5[nH]ncc5c4[C@H]4[C@H]5CCC(C5)[C@H]43)cc12 shows growth equal to 22.2

Entry COc1cccc(C(=O)NC(c2ccc(C)cc2)c2cc(Cl)c3cccnc3c2O)c1 (stereo not given) , growth reported as 14.1

// recorded growth for CNCCNc1nc2ccccc2c2c(=O)c3cc(F)ccc3sc12 : -63.3

Given item O=C(Nc1ccc(Cl)cc1)c1cc2ccccc2cc1OP(=O)(O)O , the value recorded as its growth is 42.3

Lookup result for COc1cc(/C=C/C(=O)c2ccc(Cl)cc2)cc(CN2CCCCC2)c1O ; measured growth: 88.6

New cases:
So for CCOC(=O)c1sc(-c2ccc(OS(=O)(=O)c3cccs3)c(C=O)c2)nc1C , the logged growth turned out to be 8.51

GET /value?item= NC(CCl)=NCCC[C@H](N)C(=O)O &field=growth returns 100

Field growth (entry COc1ccc(CN2CCCC(C(=O)c3ccc(C(F)(F)F)cc3)C2)c(O)c1 (stereo not given) ) reads 13.4

Entry CCN1C(=O)N(CC)C2C1NN=c1s/c(=C3\C(=O)N(C(C)C)c4ccccc43)c(=O)n12 (stereo not given) ; growth = 27.1

// recorded growth for COc1ccc(C(=O)C2CC2c2ccc(Cl)cc2)cc1 (stereo not given) : 102
